Biological target: Cytochrome P450 1A2 (Homo sapiens)
Test: Cytochrome panel assay with activity outcomes
Settings: recombinant CYP, pro-luciferin dealkylation, luminescence, p450-cyp1a2; series mostly up to 57.1 µM
About 5,700 (36%) of roughly 16,000 compounds were called active. Roughly 24% stayed inconclusive and do not appear here. Calls follow the shape of the dose curve; as a rule, active = well fitted curve in the direction sought with a large enough effect; inconclusive = small, poorly fitted or top-dose-only effect, or effect the other way; inactive = no such curve, though single readings can be large or run the other way. The list shows a part of the results.
# output must be one of t = active, f = inactive

Illustrative cases are given below, each with its answer.
[[record]]
line_notation = "CCN1CCc2c(sc(NC(=O)c3ccc(S(=O)(=O)N4CCOCC4)cc3)c2C(=O)OC)C1"
class_label = "f"

[[record]]
line_notation = "O=C(/C=C/c1ccc2ccccc2c1)c1ccoc1"
class_label = "t"


[Q] Would you mind telling me which call this test gave CCNc1ncc2nc(C)c(=O)n(Cc3ccc(F)cc3)c2n1 ?
[A] t

[Q] Same lookup for CCOC(=O)c1c(NC(=S)Nc2ccccc2)sc2c1CCN(CCc1ccccc1)C2 , please.
[A] t

----------
Target: Cytochrome P450 1A2 (Homo sapiens)
Assay: Cytochrome panel assay with activity outcomes
Settings: recombinant CYP, pro-luciferin dealkylation, luminescence, p450-cyp1a2; series mostly up to 57.1 µM
The whole screen tested about 16,000 compounds, of which about 5,700 (36%) were called active. Roughly 24% stayed inconclusive and do not appear here. Calls come from the whole dose curve; as a rule, active = well fitted curve in the direction sought with a large enough effect; inconclusive = small, poorly fitted or top-dose-only effect, or effect the other way; inactive = no such curve, though single readings can be large or run the other way. The list shows a part of the results.
Allowed answers: Yes for active, No for inactive

Reference set (3 entries):
[[record]]
compound = "CCc1nc(SCC(=O)N2CCCc3ccccc32)c2oc3ccccc3c2n1"
class_label = "Yes"

[[record]]
compound = "CN(C(=O)Cn1nnc(-c2cccc(C(F)(F)F)c2)n1)C1CCCCC1"
class_label = "No"

[[record]]
compound = "COc1ccc(NC(=O)N2CCCC3(CCN(S(=O)(=O)c4ccccc4)CC3)C2)cc1"
class_label = "No"


[Q] Test call for this compound, please: Cc1ccccc1OCCCn1c(=O)sc2ccccc21
[A] Yes

[Q] Okay, and O=C1C(=O)N(Cc2ccc(Cl)c(Cl)c2)c2ccccc21 ?
[A] Yes

[Q] Again, but for COc1cc(NC(=O)Cc2c(C(=O)O)[nH]c3ccccc23)cc(OC)c1OC
[A] No

[Q] Follow-up item: O=C(CN1C(=O)NC2(CCCCCC2)C1=O)N1CCN(S(=O)(=O)c2ccc(Cl)cc2)CC1
[A] No

[Q] Similarly, CCOC(=O)c1cn(-c2nc(-c3ccc(Cl)cc3)cs2)c2c(F)c(N3CC(C)OC(C)C3)c(F)cc2c1=O (configuration not stated) ?
[A] No

[Q] Please answer likewise for CCc1c(C(=O)O)[nH]c2ccc(Br)cc12
[A] Yes

[Q] How about CCOC(=O)c1cnn(-c2nc(-c3cccc(F)c3)cs2)c1C(F)(F)F ?
[A] Yes

----------
Target: Cytochrome P450 1A2 (Homo sapiens) (UniProt P05177)
Sequence (P05177 whole entry, looked up): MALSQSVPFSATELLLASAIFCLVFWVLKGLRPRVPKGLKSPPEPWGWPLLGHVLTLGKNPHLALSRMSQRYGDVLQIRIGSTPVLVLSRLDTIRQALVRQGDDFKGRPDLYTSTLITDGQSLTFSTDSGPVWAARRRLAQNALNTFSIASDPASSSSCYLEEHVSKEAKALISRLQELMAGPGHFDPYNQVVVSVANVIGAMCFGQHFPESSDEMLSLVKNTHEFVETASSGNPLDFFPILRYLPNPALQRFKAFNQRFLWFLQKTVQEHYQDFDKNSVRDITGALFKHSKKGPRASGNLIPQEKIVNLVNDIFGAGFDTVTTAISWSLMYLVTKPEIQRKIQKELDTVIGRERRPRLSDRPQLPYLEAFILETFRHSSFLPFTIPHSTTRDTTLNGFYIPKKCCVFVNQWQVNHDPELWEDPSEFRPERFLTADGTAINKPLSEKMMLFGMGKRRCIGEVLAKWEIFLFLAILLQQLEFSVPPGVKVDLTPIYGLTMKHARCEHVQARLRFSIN
Assay: Cytochrome panel assay with activity outcomes
Conditions: recombinant CYP, pro-luciferin dealkylation, luminescence, p450-cyp1a2; series mostly up to 57.1 µM
Hit rate of the full screen: of about 16,000 compounds, about 5,700 (36%) were called active. About 24% were inconclusive and are not listed. The call rests on the fitted dose curve; in most records, active means well fitted curve in the direction sought with a large enough effect; inconclusive means small, poorly fitted or top-dose-only effect, or effect the other way; inactive means no such curve, though single readings can be large or run the other way. Some of the results follow.
Result category, one only: active, inactive

Worked examples, 4 molecules total:
[[record]]
molecule = "O=C(NCC1CCCO1)c1ccc2c(=O)n(Cc3ccco3)c(SCC(=O)N3CCCC3)nc2c1 (stereo not given)"
class_label = "inactive"

[[record]]
molecule = "O=c1ncn(-c2ccccc2F)c2ncccc12"
class_label = "inactive"

[[record]]
molecule = "O=C(O)c1ccc(SSc2ccc(C(=O)O)cn2)nc1"
class_label = "active"

[[record]]
molecule = "Cc1ccccc1-n1ncc2c(SCC(=O)N3c4ccccc4CC3C)ncnc21 (stereo not given)"
class_label = "inactive"


[Q] Call for entry Cc1ccc(-n2cnc(=O)c3cccnc32)cc1 :
[A] inactive

----------
Biological target: Cytochrome P450 1A2 (Homo sapiens) (UniProt P05177)
Assay: Cytochrome panel assay with activity outcomes
Details: recombinant CYP, pro-luciferin dealkylation, luminescence, p450-cyp1a2; series mostly up to 57.1 µM
Screen size: about 16,000 compounds; about 5,700 (36%) were called active. Not shown: some 24% with an inconclusive outcome. Calls come from the whole dose curve; as a rule, active = well fitted curve in the direction sought with a large enough effect; inconclusive = small, poorly fitted or top-dose-only effect, or effect the other way; inactive = no such curve, though single readings can be large or run the other way. Some of the results follow.
Allowed answers: active, inactive

// known answers, use as guide
[[record]]
compound = "COC(=O)CSC1=C(C#N)C(c2cccc(F)c2)CC(=O)N1 (configuration not stated)"
class_label = "inactive"

[[record]]
compound = "O=c1c(-c2cccs2)nc2cnc(N3CCNCC3)nc2n1C1CC1"
class_label = "active"

[[record]]
compound = "COc1ccccc1NC(=O)N1CCC(c2nnc(SCC(N)=O)n2C)CC1"
class_label = "inactive"

[[record]]
compound = "CCOC(=O)C1=C(C)NC(=O)NC1c1ccoc1 (configuration not stated)"
class_label = "active"

[[record]]
compound = "CCOC(=O)N1CCN(C(=O)CNS(=O)(=O)c2cccs2)CC1"
class_label = "inactive"


[Q] Please let me know the test result on file for COc1ccc(Oc2nc3ccccc3nc2C(F)(F)F)cc1 .
[A] active

[Q] And the next one, Cc1cccc(N(CC(=O)NCCSCc2ccco2)S(=O)(=O)c2ccccc2)c1 ?
[A] inactive

[Q] What about Cc1csc(NC(=O)Cc2c[nH]c3ccccc23)n1 ?
[A] active

[Q] What about CCOC(=O)C1=C(C)NC(C)=C(C(=O)OCC)C1c1sccc1C ?
[A] active

[Q] Further, for CCOC(=O)C1=C(O)C(Nc2nccs2)(C(F)(F)F)N=C1C (configuration not stated) ?
[A] inactive

[Q] # iterate: COc1cccc(OC)c1OCCCN1CCOCC1
[A] inactive

[Q] Param item: Cn1c(C(=O)O)c(CC(=O)NCC2COc3ccccc3O2)c2ccccc21 (configuration not stated)
[A] inactive

----------
Target: Cytochrome P450 1A2 (Homo sapiens) (UniProt P05177)
Experiment: Cytochrome panel assay with activity outcomes
Details: recombinant CYP, pro-luciferin dealkylation, luminescence, p450-cyp1a2; series mostly up to 57.1 µM
Among all 16,000 compounds or so, about 5,700 (36%) were called active. Roughly 24% stayed inconclusive and do not appear here. The list shows a part of the results.
EXPERIMENTAL ENDPOINT: AC50

Below, each entry is followed by its recorded AC50 result.
[[record]]
molecule = "Cc1cccc(CNc2ncnc3ccc(-c4ccc(C(=O)N(C)C)cc4)cc23)c1"
reported_measurement = "15.8 µM (active)"

[[record]]
molecule = "O=C(Nc1cccc([N+](=O)[O-])c1)c1ccc(CSc2ccccc2)cc1"
reported_measurement = "inactive"

[[record]]
molecule = "CN(C)c1ccc(-c2ccc3ncnc(NCc4ccccc4)c3c2)cc1"
reported_measurement = "0.501 µM (active)"

[[record]]
molecule = "Cn1c(CN2CCCC2)nc2cc(NC(=O)C3CCCCC3)ccc21"
reported_measurement = "inactive"

[[record]]
molecule = "CS(=O)(=O)N(CC(=O)Nc1cccc(F)c1)c1cccc([N+](=O)[O-])c1"
reported_measurement = "inactive"

[[record]]
molecule = "CCC(=O)Nc1cccc(C(=O)/C=C/c2ccccc2)c1"
reported_measurement = "1 µM (active)"

[[record]]
molecule = "COc1ccccc1Nc1nc(-c2sc(NC(=O)c3ccc([N+](=O)[O-])cc3)nc2C)cs1"
reported_measurement = "inactive"

[[record]]
molecule = "CCC(=O)Nc1cccc(NC(=O)c2cccc([N+](=O)[O-])c2)c1"
reported_measurement = "7.08 µM (active)"

[[record]]
molecule = "CCOC(=O)c1cccc(NC(=O)COc2ccc([N+](=O)[O-])cc2)c1"
reported_measurement = "12.6 µM (active)"

[[record]]
molecule = "Cc1ccc(C(=O)C(OC(=O)CNS(=O)(=O)c2ccccc2)c2ccccc2)cc1 (stereo unspecified)"
reported_measurement = "inactive"


[Q] # get_value(readout='AC50', item= O=C(O)Cc1ccc2c(c1)N(S(=O)(=O)c1cccc(C(F)(F)F)c1)CC(C(=O)O)O2 (stereo unspecified) )
[A] inactive

[Q] Item: CN1CCC(=NNC(=O)CSCc2ccccc2)CC1
[A] 14.1 µM (active)

----------
Molecular target: Cytochrome P450 1A2 (Homo sapiens)
Assay: Cytochrome panel assay with activity outcomes
Settings: recombinant CYP, pro-luciferin dealkylation, luminescence, p450-cyp1a2; series mostly up to 57.1 µM
Among all 16,000 compounds or so, about 5,700 (36%) were called active. Roughly 24% stayed inconclusive and do not appear here. Calls come from the whole dose curve; as a rule, active = well fitted curve in the direction sought with a large enough effect; inconclusive = small, poorly fitted or top-dose-only effect, or effect the other way; inactive = no such curve, though single readings can be large or run the other way. The list shows a part of the results.
Choose the fitting class; nothing outside TRUE for active, FALSE for inactive is accepted.

See these solved cases before continuing.
[[record]]
compound = "CCOC(=O)N1CCC(NC(=O)CS(=O)(=O)Cc2nc(-c3cccc(OC)c3)oc2C)CC1"
class_label = "FALSE"

[[record]]
compound = "Cc1ccccc1-c1nc(CS(=O)CC(=O)NCCN2CCN(Cc3ccccc3)CC2)c(C)o1 (stereo not given)"
class_label = "FALSE"


[Q] Each compound tested received a call. Report the one for NC1=NC2(CCCCC2)N=C(Nc2ccc(F)cc2F)N1 .
[A] FALSE

[Q] Try this compound next: c1csc(CNc2ncncc2-c2ccoc2)c1
[A] TRUE

[Q] Here is the next compound: CN1CCc2c(c3ccccc3n2Cc2ccccc2)C1
[A] TRUE

Data origin, for the record: PubChem BioAssay AID1851
